Values were extracted from the supplement of paper PMC6992640.

# System: HCI16 (cells of a triple-negative basal-like breast cancer xenograft);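 further: PDX cells carrying CMV promoter-driven luciferase, viability read as total photon flux per second by IVIS imaging following D-luciferin, vehicle control 0.1% DMSO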
# Method: cell viability (% of vehicle); higher = less cytotoxic
# Measurement Context: 10 µM; 72 h
Measure Name: cell viability
Quick one: just the number, no unit, thanks!

Known cell viability results, listed for orientation:
>>> experimental_result("NCCCCC(NC(CCc1ccccc1)C(=O)O)C(=O)N1CCCC1C(=O)O.O.O (centres undefined) [Lisinopril dihydrate]")
130
>>> experimental_result("Cc1ccc(Nc2nccc(N(C)c3ccc4c(C)n(C)nc4c3)n2)cc1S(N)(=O)=O.Cl [Pazopanib Hydrochloride]")
134
>>> experimental_result("NC(=O)CC[C@H](N)C(=O)O [L-Glutamine]")
97.3

Consider the additional compound presented here.
Qu. Please report the recorded cell viability for Clc1ccc(COC(Cn2ccnc2)c2ccc(Cl)cc2Cl)c(Cl)c1 (centres undefined) [Miconazole] .
Ans. 120
